subject-of-test: UniProt:P05023
Assay type: biochemical
conditions: read-out: Ki in nM ± SEM α1β1
parameter: Ki (nM)
Entry rule: numbers only, all in nM.

The examples below pair each entry with its known result.
compound | readout-unit | Ki
CC1CN(CCC2CC2)CCC(O[C@@H]2[C@H](C)O[C@@H](O[C@@H]3[C@H](C)O[C@@H](O[C@H]4CC[C@@]5(C)C(CCC6C5C[C@H](O)[C@]5(C)[C@@H](C7=CC(=O)OC7)CC[C@]65O)C4)C[C@@H]3O)C[C@@H]2O)O1 (stereo partly shown) | nM | 86.1
CC1CN(CC2CC(C)(C)C2)CCC(O[C@@H]2[C@H](C)O[C@@H](O[C@@H]3[C@H](C)O[C@@H](O[C@H]4CC[C@@]5(C)C(CCC6C5C[C@H](O)[C@]5(C)[C@@H](C7=CC(=O)OC7)CC[C@]65O)C4)C[C@@H]3O)C[C@@H]2O)O1 (stereo partly shown) | nM | 31.6

Fill blank: measured Ki of the compound CC1CN(CC(F)(F)F)CCC(O[C@@H]2[C@H](C)O[C@@H](O[C@@H]3[C@H](C)O[C@@H](O[C@H]4CC[C@@]5(C)C(CCC6C5C[C@H](O)[C@]5(C)[C@@H](C7=CC(=O)OC7)CC[C@]65O)C4)C[C@@H]3O)C[C@@H]2O)O1 (stereo partly shown) is ____.
119

Fill blank: measured Ki of the compound CC1CN(C(C)C)CCC(O[C@@H]2[C@H](C)O[C@@H](O[C@@H]3[C@H](C)O[C@@H](O[C@H]4CC[C@@]5(C)C(CCC6C5C[C@H](O)[C@]5(C)[C@@H](C7=CC(=O)OC7)CC[C@]65O)C4)C[C@@H]3O)C[C@@H]2O)O1 (stereo partly shown) is ____.
149

====

subject-of-test: human Na,K-ATPase α2β3FXYD1 (Homo sapiens (Human), UniProt P50993+P54709)
assay-remarks: biochemical
Assay type: biochemical
parameter: Selectivity Ki ratio α1β1/α2β3

compound | experimental-result
CC1CN(C(C)C)CCC(O[C@@H]2[C@H](C)O[C@@H](O[C@@H]3[C@H](C)O[C@@H](O[C@H]4CC[C@@]5(C)C(CCC6C5C[C@H](O)[C@]5(C)[C@@H](C7=CC(=O)OC7)CC[C@]65O)C4)C[C@@H]3O)C[C@@H]2O)O1 (stereo partly shown) | 14.4
CCCN1CCC(O[C@@H]2[C@H](C)O[C@@H](O[C@@H]3[C@H](C)O[C@@H](O[C@H]4CC[C@@]5(C)C(CCC6C5C[C@H](O)[C@]5(C)[C@@H](C7=CC(=O)OC7)CC[C@]65O)C4)C[C@@H]3O)C[C@@H]2O)OC(C)C1 (stereo partly shown) | 8.8
CC1CN(C(C)(C)C)CCC(O[C@@H]2[C@H](C)O[C@@H](O[C@@H]3[C@H](C)O[C@@H](O[C@H]4CC[C@@]5(C)C(CCC6C5C[C@H](O)[C@]5(C)[C@@H](C7=CC(=O)OC7)CC[C@]65O)C4)C[C@@H]3O)C[C@@H]2O)O1 (stereo partly shown) | 8.2

Fill blank: measured Selectivity Ki ratio α1β1/α2β3 of the compound CC1CN(C)CCC(O[C@@H]2[C@H](C)O[C@@H](O[C@@H]3[C@H](C)O[C@@H](O[C@H]4CC[C@@]5(C)C(CCC6C5C[C@H](O)[C@]5(C)[C@@H](C7=CC(=O)OC7)CC[C@]65O)C4)C[C@@H]3O)C[C@@H]2O)O1 (stereo partly shown) is ____.
9.5

Fill blank: measured Selectivity Ki ratio α1β1/α2β3 of the compound CC1CN(CC2CC2)CCC(O[C@@H]2[C@H](C)O[C@@H](O[C@@H]3[C@H](C)O[C@@H](O[C@H]4CC[C@@]5(C)C(CCC6C5C[C@H](O)[C@]5(C)[C@@H](C7=CC(=O)OC7)CC[C@]65O)C4)C[C@@H]3O)C[C@@H]2O)O1 (stereo partly shown) is ____.
22.2

Fill blank: measured Selectivity Ki ratio α1β1/α2β3 of the compound CC1CN(C2CCCC2)CCC(O[C@@H]2C(C)O[C@@H](OC3C(C)OC(O[C@H]4CC[C@@]5(C)C(CCC6C5CC(O)[C@]5(C)[C@@H](C7=CC(=O)OC7)CC[C@]65O)C4)C[C@@H]3O)C[C@@H]2O)O1 (stereo in doubt) is ____.
5

Fill blank: measured Selectivity Ki ratio α1β1/α2β3 of the compound CC1CN(CC(F)(F)F)CCC(O[C@@H]2[C@H](C)O[C@@H](O[C@@H]3[C@H](C)O[C@@H](O[C@H]4CC[C@@]5(C)C(CCC6C5C[C@H](O)[C@]5(C)[C@@H](C7=CC(=O)OC7)CC[C@]65O)C4)C[C@@H]3O)C[C@@H]2O)O1 (stereo partly shown) is ____.
9.6
